target: human MC3R (Homo sapiens); construct: expressed in transfected cells; host or cells: HEK-293 cells stably expressing the GScAMP22F split-luciferase cAMP sensor (parent reporter line from Promega); MC3R clone generated in-house, G418 selection; assay: split-luciferase cAMP sensor assay, agonist mode (measurement window 1), hMC3R; format: cell-based; conditions: % maximal activation, agonist mode; read-out: MC3R cAMP % max activation
Sequence (P41968 whole entry): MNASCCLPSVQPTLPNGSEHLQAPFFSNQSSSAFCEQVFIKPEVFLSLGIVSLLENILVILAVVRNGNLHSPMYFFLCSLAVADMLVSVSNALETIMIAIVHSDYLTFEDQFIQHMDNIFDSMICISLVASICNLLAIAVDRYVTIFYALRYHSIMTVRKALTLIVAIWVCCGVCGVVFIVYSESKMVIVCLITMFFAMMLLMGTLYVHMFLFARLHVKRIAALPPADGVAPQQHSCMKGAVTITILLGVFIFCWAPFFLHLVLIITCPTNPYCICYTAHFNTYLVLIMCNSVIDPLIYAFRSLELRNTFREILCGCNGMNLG
Positions of bridges follow the written chain, without caps; N, C: chain ends. Non-standard residues stand in square brackets, D forms with d. Residues, ends and D or L forms follow the SMILES beside them. NMeR = CN[C@@H](CCCNC(=N)N)C(=O)O; 2Pal = N[C@@H](Cc1ccccn1)C(=O)O; 4Pal = N[C@@H](Cc1ccncc1)C(=O)O; Cit = NC(=O)NCCC[C@H](N)C(=O)O; Nle = CCCC[C@H](N)C(=O)O; Aib = CC(C)(N)C(=O)O
Reported Emax by item:
reported property: Emax (%)

compound	observed
CC(=O)N[C@@H](CCCNC(=N)N)C(=O)N[C@H]1CSSC[C@@H](C(N)=O)NC(=O)[C@@H](Cc2c[nH]c3ccccc23)NC(=O)[C@H](CCCNC(=N)N)N(C)C(=O)[C@@H](Cc2ccccc2)NC(=O)[C@H](CCCNC(=N)N)NC(=O)[C@@H](C)NC1=O [CTX-1284] (Ac-RC[dA]R[dF][NMeR][dW]C-NH2; disulfide 2-8)	45
CC(=O)N[C@@H](CCCNC(=N)N)C(=O)N[C@H]1CSSC[C@@H](C(N)=O)NC(=O)[C@@H](Cc2c[nH]c3ccccc23)NC(=O)[C@H](CCCNC(N)=O)NC(=O)[C@@H](Cc2ccccc2)NC(=O)[C@H](CCCNC(=N)N)NC(=O)[C@@H](C)NC1=O [CTX-1281] (Ac-RC[dA]R[dF][Cit][dW]C-NH2; disulfide 2-8 (inferred))	44
CCCC[C@H](NC(=O)[C@H](CCCNC(=N)N)NC(C)=O)C(=O)N[C@H]1CSSC[C@@H](C(N)=O)NC(=O)[C@H](Cc2c[nH]c3ccccc23)NC(=O)[C@H](CCCNC(=N)N)NC(=O)[C@@H](Cc2ccccc2)NC(=O)[C@H](Cc2ccccn2)NC1=O [CTX-1619] (Ac-R[Nle]C[2Pal][dF]RWC-NH2; disulfide 3-8 (inferred))	84
CC(=O)N[C@@H](CCCNC(=N)N)C(=O)N[C@H]1CSSC[C@@H](C(N)=O)NC(=O)[C@H](Cc2c[nH]c3ccccc23)NC(=O)[C@H](CCCNC(=N)N)NC(=O)[C@@H](Cc2ccccc2)NC(=O)[C@H](Cc2c[nH]cn2)NC(=O)C(C)(C)NC1=O	91
CCCC[C@H](NC(=O)[C@H](CCCNC(=N)N)NC(C)=O)C(=O)N[C@H]1CSSC[C@@H](C(N)=O)NC(=O)[C@@H](Cc2c[nH]c3ccccc23)NC(=O)[C@H](CCCNC(=N)N)NC(=O)[C@@H](Cc2ccccc2)NC(=O)[C@H](CCCNC(=N)N)NC1=O [CTX-1616] (Ac-R[Nle]CR[dF]R[dW]C-NH2; disulfide 3-8)	78
CC(=O)N[C@H]1CSSC[C@@H](C(N)=O)NC(=O)[C@H](Cc2c[nH]c3ccccc23)NC(=O)[C@H](CCCNC(=N)N)NC(=O)[C@@H](Cc2ccccc2)NC(=O)[C@H](CCCNC(=N)N)NC(=O)CNC1=O [CTX-1629, cyclo(Cys-Gly-Arg-D-Phe-Arg-Trp-Cys)] (Ac-CGR[dF]RWC-NH2; disulfide 1-7)	83
CC(=O)N[C@H]1CSSC[C@@H](C(N)=O)NC(=O)[C@H](Cc2c[nH]c3ccccc23)NC(=O)[C@H](CCCNC(=N)N)NC(=O)[C@@H](Cc2ccccc2)NC(=O)[C@H](CCCNC(N)=O)NC(=O)CNC1=O [CTX-1630, cyclo(Cys-Gly-Cit-D-Phe-Arg-Trp-Cys)] (Ac-CG[Cit][dF]RWC-NH2; disulfide 1-7 (inferred))	35
CC(=O)N[C@H]1CSSC[C@@H](C(N)=O)NC(=O)[C@H](Cc2ccccc2)NC(=O)[C@H](CCCNC(=N)N)NC(=O)[C@@H](Cc2ccccc2)NC(=O)[C@H](Cc2c[nH]cn2)NC(=O)C(C)(C)NC1=O [CTX-1634, cyclo(Cys-Aib-His-D-Phe-Arg-Phe-Cys)] (Ac-C[Aib]H[dF]RFC-NH2; disulfide 1-7 (inferred))	94
CC(=O)N[C@@H](CCCNC(=N)N)C(=O)N[C@H]1CSSC[C@@H](C(N)=O)NC(=O)[C@H](Cc2c[nH]c3ccccc23)NC(=O)[C@H](CCCNC(=N)N)NC(=O)[C@@H](Cc2ccccc2)NC(=O)[C@H](CCCNC(N)=O)NC(=O)[C@H](C)NC1=O [CTX-1287, Arg-cyclo(Cys-Ala-Cit-D-Phe-Arg-Trp-Cys)] (Ac-RCA[Cit][dF]RWC-NH2; disulfide 2-8 (inferred))	43
CC1(C)NC(=O)CSC[C@@H](C(N)=O)NC(=O)[C@H](Cc2ccccc2)NC(=O)[C@H](CCCNC(=N)N)NC(=O)[C@@H](Cc2ccccc2)NC(=O)[C@H](Cc2c[nH]cn2)NC1=O [CTX-1650] ({CH2CO}-[Aib]H[dF]RFC-NH2; thioether N-6)	125
CC(=O)N[C@@H](CCCNC(=N)N)C(=O)N[C@H]1CSSC[C@@H](C(N)=O)NC(=O)[C@H](Cc2ccccc2)NC(=O)[C@H](CCCNC(=N)N)NC(=O)[C@@H](Cc2ccccc2)NC(=O)[C@H](Cc2ccncc2)NC(=O)C(C)(C)NC1=O [CTX-1606] (Ac-RC[Aib][4Pal][dF]RFC-NH2; disulfide 2-8 (inferred))	7.69
N=C(N)NCCC[C@@H]1NC(=O)[C@@H](Cc2ccccc2)NC(=O)[C@H](CCCNC(N)=O)NC(=O)CNC(=O)CSC[C@@H](C(N)=O)NC(=O)[C@H](Cc2c[nH]c3ccccc23)NC1=O [CTX-1646] ({CH2CO}-G[Cit][dF]RWC-NH2; thioether N-6)	70

Origin of values: patent US20240391954A1
